molecular target: S1PR3 (Homo sapiens); assay: [32P]S1P competitive cell membrane binding assay, S1PR3; settings: read-out: IC50 S1PR3; competition against [32P]S1P
Sequence (Q99500 whole entry, species assumed): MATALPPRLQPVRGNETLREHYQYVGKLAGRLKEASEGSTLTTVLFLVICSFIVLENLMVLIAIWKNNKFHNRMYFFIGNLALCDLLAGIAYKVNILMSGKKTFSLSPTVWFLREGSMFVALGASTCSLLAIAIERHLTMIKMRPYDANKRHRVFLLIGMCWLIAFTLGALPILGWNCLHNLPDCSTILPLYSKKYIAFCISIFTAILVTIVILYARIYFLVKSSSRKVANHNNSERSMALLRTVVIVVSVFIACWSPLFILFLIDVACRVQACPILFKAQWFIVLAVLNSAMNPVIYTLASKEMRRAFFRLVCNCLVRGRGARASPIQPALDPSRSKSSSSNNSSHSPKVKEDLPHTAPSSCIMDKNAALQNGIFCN
pIC50: −log10 of the molar value.
measured_attribute: pIC50

Challenge: Look up pIC50 for this compound: Cc1nn(C)c2nc(NNC(=O)Nc3cc(Cl)nc(Cl)c3)cc(C(C)C)c12 [JTE-013, reference compound]
Response given: < 6.00

* * *

molecular target: recombinant human S1PR2 (Homo sapiens); assay: [32P]S1P competitive cell membrane binding assay, S1PR2; conditions: IC50 S1PR2, competition against [32P]S1P, CHO cell membrane
Sequence (O95136 whole entry): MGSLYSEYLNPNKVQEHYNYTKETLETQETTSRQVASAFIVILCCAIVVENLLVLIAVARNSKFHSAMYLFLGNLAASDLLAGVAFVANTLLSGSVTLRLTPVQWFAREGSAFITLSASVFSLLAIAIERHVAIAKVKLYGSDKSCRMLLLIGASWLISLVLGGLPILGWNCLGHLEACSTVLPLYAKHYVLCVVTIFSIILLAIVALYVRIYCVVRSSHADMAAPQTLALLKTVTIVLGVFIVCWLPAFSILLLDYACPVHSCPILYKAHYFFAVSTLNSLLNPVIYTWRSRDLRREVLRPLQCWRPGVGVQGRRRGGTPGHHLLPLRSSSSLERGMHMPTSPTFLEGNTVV
measured_attribute: IC50 (nM)
Numeric answer only, unit nM assumed.

Challenge: Look up IC50 for this compound: COCOc1cc(NC(=O)NNc2cc(C(C)C)c3c(C)nn(C)c3n2)cc(Cl)n1
Response given: 8.09

Challenge: Please answer likewise for COCCOc1cc(NC(=O)NNc2cc(C(C)C)c3c(C)nn(C)c3n2)cc(Cl)n1
Response given: 234

Challenge: Please answer likewise for COc1cc(NC(=O)NNc2cc(C(C)C)c3c(C)nn(C)c3n2)cc(Cl)n1
Response given: 9.52

Challenge: Please answer likewise for Cc1nn(C)c2nc(NNC(=O)Nc3cc(F)nc(Cl)c3)cc(C(C)C)c12
Response given: 135

Challenge: Please answer likewise for Cc1nn(C)c2nc(NNC(=O)Nc3cc(Cl)nc(OCCF)c3)cc(C(C)C)c12
Response given: 8.12

* * *

target: recombinant human S1PR2 (Homo sapiens); assay: [32P]S1P competitive cell membrane binding assay, S1PR2; details: read-out: IC50 S1PR2; competition against [32P]S1P, CHO cell membrane
measured_attribute: IC50
Write the numeric value and follow it with the unit.

Challenge: Look up IC50 for this molecule: Cc1nn(C)c2nc(NNC(=O)Nc3cc(Cl)nc(Cl)c3)cc(C(C)C)c12 [JTE-013, reference compound]
Response given: 0.0685 µM

* * *

biological target: S1PR1 (Homo sapiens, UniProt P21453); experiment: [32P]S1P competitive cell membrane binding assay, S1PR1; settings: read-out: IC50 S1PR1; competition against [32P]S1P
Sequence (P21453 whole entry, species assumed): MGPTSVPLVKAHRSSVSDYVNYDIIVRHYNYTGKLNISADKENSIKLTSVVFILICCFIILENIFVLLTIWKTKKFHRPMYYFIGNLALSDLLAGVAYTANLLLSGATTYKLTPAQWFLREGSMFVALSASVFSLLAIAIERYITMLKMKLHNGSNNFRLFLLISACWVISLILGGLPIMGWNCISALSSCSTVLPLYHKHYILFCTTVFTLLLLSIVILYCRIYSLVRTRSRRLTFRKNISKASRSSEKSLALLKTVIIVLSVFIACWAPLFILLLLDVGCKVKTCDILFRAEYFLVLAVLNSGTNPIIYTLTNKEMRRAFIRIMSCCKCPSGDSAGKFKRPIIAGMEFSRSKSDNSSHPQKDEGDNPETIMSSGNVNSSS
pIC50: −log10 of the molar value.
measured_attribute: pIC50

Challenge: Look up pIC50 for this compound: Cc1nn(C)c2nc(NNC(=O)Nc3cc(Cl)nc(Cl)c3)cc(C(C)C)c12 [JTE-013, reference compound]
Response given: < 6.00
